Test system: 855422-203-R-J1-PDC complex spheroid viability
method.notes: Anticancer human tumor 855422-203-R-J1-PDC patient-derived bladder carcinoma cell line growth inhibition [POLQ]
conditions: second compound 3.16 µM; first compound 0.316 µM; stronger effect = lower value
readout.name: viability, T/C (%)
Write it as a number; the unit % goes unstated.

COc1cc(C2c3cc4c(cc3C(OC3OC5COC(C)OC5C(O)C3O)C3COC(=O)C23)OCO4)cc(OC)c1O (stereo unspecified) + Cc1cccc(N(C)C(=O)C2C(O)CCN2c2nc(C)cc(C(F)(F)F)c2C#N)c1 :: 23.5

Qu. For the molecule CCc1cc2c(N3CCc4c(cc(Cn5ccnc5)cc4-c4cn(C)nc4C(F)(F)F)C3=O)cc(C)nc2c(OC)n1 + Nc1ccc(C#CCN(C(=O)Cc2ncc(C(F)(F)F)cc2C(F)(F)F)c2ccc(F)cc2)nn1 , report viability, T/C.
Ans. 133

Qu. For the molecule C#Cc1c(F)ccc2cc(O)cc(-c3ncc4c(N5CC6CCC(C5)N6)nc(OCC56CCCN5CC(F)C6)nc4c3F)c12 (stereo unspecified) + Nc1ccc(C#CCN(C(=O)Cc2ncc(C(F)(F)F)cc2C(F)(F)F)c2ccc(F)cc2)nn1 , report viability, T/C.
Ans. 97.9

Qu. For the molecule O=c1[nH]cc(F)c(=O)[nH]1 + Cc1cccc(N(C)C(=O)C2C(O)CCN2c2nc(C)cc(C(F)(F)F)c2C#N)c1 , report viability, T/C.
Ans. 62.6

Qu. For the molecule CC1COCCN1c1cc(-c2ccnn2C)c2ccnc(-c3ccn[nH]3)c2n1 (stereo unspecified) + Cc1cccc(N(C)C(=O)C2C(O)CCN2c2nc(C)cc(C(F)(F)F)c2C#N)c1 , report viability, T/C.
Ans. 22.7

Qu. For the molecule O=c1[nH]cc(F)c(=O)[nH]1 + COC1C(OC(N)=O)C(O)C(Oc2ccc3c(O)c(NC(=O)c4ccc(O)c(CC=C(C)C)c4)c(=O)oc3c2C)OC1(C)C , report viability, T/C.
Ans. 58.4

Qu. For the molecule COc1cccc2c1C(=O)c1c(O)c3c(c(O)c1C2=O)CC(O)(C(=O)CO)CC3OC1CC(N)C(O)C(C)O1 (stereo unspecified) + COC1C(OC(N)=O)C(O)C(Oc2ccc3c(O)c(NC(=O)c4ccc(O)c(CC=C(C)C)c4)c(=O)oc3c2C)OC1(C)C , report viability, T/C.
Ans. 2.63

Qu. For the molecule C=CCn1c(=O)c2cnc(Nc3ccc(N4CCN(C)CC4)cc3)nc2n1-c1cccc(C(C)(C)O)n1 + Cc1cccc(N(C)C(=O)C2C(O)CCN2c2nc(C)cc(C(F)(F)F)c2C#N)c1 , report viability, T/C.
Ans. 115

Qu. For the molecule CC1COCCN1c1cc(C2(S(C)(=N)=O)CC2)nc(-c2ccnc3[nH]ccc23)n1 (stereo unspecified) + Nc1ccc(C#CCN(C(=O)Cc2ncc(C(F)(F)F)cc2C(F)(F)F)c2ccc(F)cc2)nn1 , report viability, T/C.
Ans. 119

Qu. For the molecule COc1cc(C2c3cc4c(cc3C(OC3OC5COC(C)OC5C(O)C3O)C3COC(=O)C23)OCO4)cc(OC)c1O (stereo unspecified) + Nc1ccc(C#CCN(C(=O)Cc2ncc(C(F)(F)F)cc2C(F)(F)F)c2ccc(F)cc2)nn1 , report viability, T/C.
Ans. 52

Qu. For the molecule O=C(c1cc(Cc2n[nH]c(=O)c3ccccc23)ccc1F)N1CCN(C(=O)C2CC2)CC1 + Cc1cccc(N(C)C(=O)C2C(O)CCN2c2nc(C)cc(C(F)(F)F)c2C#N)c1 , report viability, T/C.
Ans. 120

Qu. For the molecule C=CC(=O)N1CCN(c2nc(=O)n(-c3c(C)ccnc3C(C)C)c3nc(-c4c(O)cccc4F)c(F)cc23)C(C)C1 (stereo unspecified) + Cc1cccc(N(C)C(=O)C2C(O)CCN2c2nc(C)cc(C(F)(F)F)c2C#N)c1 , report viability, T/C.
Ans. 113

Qu. For the molecule C=CCn1c(=O)c2cnc(Nc3ccc(N4CCN(C)CC4)cc3)nc2n1-c1cccc(C(C)(C)O)n1 + Nc1ccc(C#CCN(C(=O)Cc2ncc(C(F)(F)F)cc2C(F)(F)F)c2ccc(F)cc2)nn1 , report viability, T/C.
Ans. 126

Qu. For the molecule O=c1[nH]cc(F)c(=O)[nH]1 + Nc1ccc(C#CCN(C(=O)Cc2ncc(C(F)(F)F)cc2C(F)(F)F)c2ccc(F)cc2)nn1 , report viability, T/C.
Ans. 104

Qu. For the molecule CCCS(=O)(=O)Nc1ccc(F)c(C(=O)c2c[nH]c3ncc(-c4ccc(Cl)cc4)cc23)c1F + Nc1ccc(C#CCN(C(=O)Cc2ncc(C(F)(F)F)cc2C(F)(F)F)c2ccc(F)cc2)nn1 , report viability, T/C.
Ans. 101

Qu. For the molecule CC1COCCN1c1cc(C2(O)CC3CCC(C2)O3)c2cnn(-c3ccn[nH]3)c2n1 (stereo unspecified) + Nc1ccc(C#CCN(C(=O)Cc2ncc(C(F)(F)F)cc2C(F)(F)F)c2ccc(F)cc2)nn1 , report viability, T/C.
Ans. 12.6

Qu. For the molecule C=CC(=O)N1CCN(c2nc(=O)n(-c3c(C)ccnc3C(C)C)c3nc(-c4c(O)cccc4F)c(F)cc23)C(C)C1 (stereo unspecified) + Nc1ccc(C#CCN(C(=O)Cc2ncc(C(F)(F)F)cc2C(F)(F)F)c2ccc(F)cc2)nn1 , report viability, T/C.
Ans. 97.2

Qu. For the molecule COc1cccc2c1C(=O)c1c(O)c3c(c(O)c1C2=O)CC(O)(C(=O)CO)CC3OC1CC(N)C(O)C(C)O1 (stereo unspecified) + Cc1cccc(N(C)C(=O)C2C(O)CCN2c2nc(C)cc(C(F)(F)F)c2C#N)c1 , report viability, T/C.
Ans. 2.03

---

System: 855422-203-R-J1-PDC complex spheroid viability
method.notes: Anticancer human tumor 855422-203-R-J1-PDC cell line growth inhibition [POLQ]; active = viability on the fitted dose curve at most 10% of control; inactive = the rest;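 note: spheroids exposed to compounds for seven days before readout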
conditions: second compound 1 µM; first compound 0.0316 µM
Your reply should match one of these outcome classes. active, inactive

O=C(c1cc(Cc2n[nH]c(=O)c3ccccc23)ccc1F)N1CCN(C(=O)C2CC2)CC1 + COC1C(OC(N)=O)C(O)C(Oc2ccc3c(O)c(NC(=O)c4ccc(O)c(CC=C(C)C)c4)c(=O)oc3c2C)OC1(C)C :: inactive
CCc1c2c(nc3ccc(O)cc13)-c1cc3c(c(=O)n1C2)COC(=O)[C@]3(O)CC + COC1C(OC(N)=O)C(O)C(Oc2ccc3c(O)c(NC(=O)c4ccc(O)c(CC=C(C)C)c4)c(=O)oc3c2C)OC1(C)C :: active
COc1ccc([C@@H](O)c2cc(-c3ncnc4cc(N5CCOCC5)ccc34)c(F)cc2Cl)nn1 + Cc1cccc(N(C)C(=O)C2C(O)CCN2c2nc(C)cc(C(F)(F)F)c2C#N)c1 :: inactive
CNCc1ccc(-c2[nH]c3cc(F)cc4c3c2CCNC4=O)cc1 + Nc1ccc(C#CCN(C(=O)Cc2ncc(C(F)(F)F)cc2C(F)(F)F)c2ccc(F)cc2)nn1 :: inactive
CC1COCCN1c1cc(C2(S(C)(=N)=O)CC2)nc(-c2ccnc3[nH]ccc23)n1 (stereo unspecified) + COC1C(OC(N)=O)C(O)C(Oc2ccc3c(O)c(NC(=O)c4ccc(O)c(CC=C(C)C)c4)c(=O)oc3c2C)OC1(C)C :: inactive

Qu. I'd appreciate the recorded outcome for Nc1ccn(C2OC(CO)C(O)C2(F)F)c(=O)n1 (stereo unspecified) + Nc1ccc(C#CCN(C(=O)Cc2ncc(C(F)(F)F)cc2C(F)(F)F)c2ccc(F)cc2)nn1 from this test.
Ans. inactive

Qu. I'd appreciate the recorded outcome for COc1ccc([C@@H](O)c2cc(-c3ncnc4cc(N5CCOCC5)ccc34)c(F)cc2Cl)nn1 + COC1C(OC(N)=O)C(O)C(Oc2ccc3c(O)c(NC(=O)c4ccc(O)c(CC=C(C)C)c4)c(=O)oc3c2C)OC1(C)C from this test.
Ans. inactive

Qu. I'd appreciate the recorded outcome for CNCc1ccc(-c2[nH]c3cc(F)cc4c3c2CCNC4=O)cc1 + Cc1cccc(N(C)C(=O)C2C(O)CCN2c2nc(C)cc(C(F)(F)F)c2C#N)c1 from this test.
Ans. inactive

Qu. I'd appreciate the recorded outcome for CCc1c2c(nc3ccc(O)cc13)-c1cc3c(c(=O)n1C2)COC(=O)[C@]3(O)CC + Nc1ccc(C#CCN(C(=O)Cc2ncc(C(F)(F)F)cc2C(F)(F)F)c2ccc(F)cc2)nn1 from this test.
Ans. active

---

Test system: 855422-203-R-J1-PDC complex spheroid viability
method.notes: Anticancer human tumor 855422-203-R-J1-PDC cell line growth inhibition [POLQ];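 note: spheroids exposed to compounds for seven days before readout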
conditions: curve of first compound; second compound 1 µM
Recorded pIC50, one value per entry.
// field semantics: pIC50 = negative decimal log of concentration (mol/L)

Qu. For the molecule O=C(Nc1ccc(O)c(NS(=O)(=O)c2ccc(F)cc2)c1)c1ccc(-c2ccccc2)cc1 + COC1C(OC(N)=O)C(O)C(Oc2ccc3c(O)c(NC(=O)c4ccc(O)c(CC=C(C)C)c4)c(=O)oc3c2C)OC1(C)C , report pIC50.
Ans. 5.09

Qu. For the molecule CCc1c2c(nc3ccc(O)cc13)-c1cc3c(c(=O)n1C2)COC(=O)[C@]3(O)CC + Nc1ccc(C#CCN(C(=O)Cc2ncc(C(F)(F)F)cc2C(F)(F)F)c2ccc(F)cc2)nn1 , report pIC50.
Ans. 8.13
